Listed compounds paired with reported log10 of IC50
Target: HIV protease (Human immunodeficiency virus type 1 group M subtype B)
Construct: HIV protease is diluted in the assay buffer to a final enzyme concentration of 12.3 nanomolar, based on a molecular weight of 10,780
Test: HIV protease enzyme assay (fluorescence, substrate 2-Ile-Nle-Phe(p-NO2)-Gln-ArgNH2)
Format: biochemical
Settings: Table 19B; HIV protease enzyme assay; read-out: IC50 (uM) or % inhib: IC50
Please keep in mind that the values are log10 of IC50 expressed in µM.

INSERT INTO measurements (compound, target_under_test, outcome_measure, measured_result) VALUES
  ('C=CCOC(=O)N[C@@H](Cc1ccccc1)[C@H](O)CN(CC(C)C)S(=O)(=O)c1ccc(OC)cc1', 'HIV protease (Human immunodeficiency virus type 1 group M subtype B)', 'log10 of IC50', -2.36),
  ('CC(C)CCN(C[C@@H](O)[C@H](Cc1ccccc1)NC(=O)[C@@H](NC(=O)OCc1ccccc1)C(C)(C)C)S(=O)(=O)c1ccccc1', 'HIV protease (Human immunodeficiency virus type 1 group M subtype B)', 'log10 of IC50', -2.74),
  ('CC(C)CCN(C[C@@H](O)[C@H](Cc1ccccc1)NC(=O)[C@H](CC(N)=O)NC(=O)OCc1ccccc1)S(=O)(=O)c1ccccc1', 'HIV protease (Human immunodeficiency virus type 1 group M subtype B)', 'log10 of IC50', -2.66),
  ('CCCS(=O)(=O)N(CCC(C)C)C[C@@H](O)[C@H](Cc1ccccc1)NC(=O)OCc1ccccc1', 'HIV protease (Human immunodeficiency virus type 1 group M subtype B)', 'log10 of IC50', -0.68);

Which value of log10 of IC50 has been reported for CCC(C)CN(C[C@@H](O)[C@H](Cc1ccccc1)NC(=O)OCc1ccccc1)S(=O)(=O)c1ccc(OC)cc1 (stereo partly drawn) in the records?
-2.44
